# tested_system: TAF1-BD2 (Homo sapiens)
# assay_name: TAF1-BD2 TR-FRET Binding Assay
# measurement_setup: read-out: TAF1-BD2 HTRF IC50
# Protocol: IC50 Measurements for Inhibitors Using TAF1-BD2 TR-FRET Binding Assay His/Flag epitope tagged TAF1-BD21504-1635 was cloned, expressed, and purified to homogeneity. TAF1-BD2 binding and inhibition was assessed by monitoring the engagement of a biotinylated small molecule compound 1000 with the target using the TR-FRET assay technology (Perkin-Elmer). […]
property_name: IC50 (nM)
One number for each entry, in nM.

Please review the following examples before continuing.
CCOC(=O)c1c(C)[nH]c2c(=O)n(C)cc(C#CC3(O)CCCCC3)c12 ... 63.2
Cc1[nH]c2c(=O)n(C)cc(C#CC(O)(c3ccccc3)C(F)(F)F)c2c1C(=O)OC(C)c1ccccc1 (stereo not shown) ... 1200
CCOC(=O)c1c(C)[nH]c2c(=O)n(C)cc(C#CC(C)(O)CC#N)c12 (stereo not shown) ... 100

// below: IC50 requested for another compound
GET /values?readout=IC50&item= Cc1[nH]c2c(=O)n(C)cc(C#CC(C)(C)O)c2c1C(=O)OC(C)(C)CCN 21.7

* * *

# tested_system: TAF1-BD1 (Homo sapiens, UniProt P21675)
# assay_name: TAF1-BD1 TR-FRET Binding Assay
# measurement_setup: read-out: TAF1-BD1 HTRF IC50
What pIC50 was measured for each of the following?
Give bare numbers, as −log10 of the molar value.

CC(=O)NCCCOC(=O)c1c(C)[nH]c2c(=O)n(C)cc(C#CC(O)(c3ccccc3)C(F)(F)F)c12 (centres unmarked) ... 6.53

Dear reader, for each entry below, please note its pIC50.
1. CCOC(=O)c1c(C)[nH]c2c(=O)n(C)cc(C#CC3(O)CCc4cccnc43)c12 (single isomer, unassigned) [Example 99b]
2. CCOC(=O)c1c(C)[nH]c2c(=O)n(C)cc(C#CC(O)(c3ccn(C)n3)C(F)(F)F)c12 (centres unmarked)
3. CCOC(=O)c1c(C)[nH]c2c(=O)n(C)cc(C#Cc3cccc(N)c3)c12
4. CCOC(=O)c1c(C)[nH]c2c(=O)n(C)cc(C#CC(O)(CC)CC)c12
5. Cc1[nH]c2c(=O)n(C)cc(C#CC(C)(O)C3CC3)c2c1-c1nnco1 (centres unmarked)
6. Cc1[nH]c2c(=O)n(C)cc(C#CC(C)(O)C3CC3)c2c1C(=O)OCc1nccs1 (centres unmarked)
7. CCOC(=O)c1c(C)[nH]c2c(=O)n(C)cc(C#CC(C)(C)OC)c12
8. CCOC(=O)c1c[nH]c2c(=O)n(C)cc(C#CC(C)(C)O)c12

1. 6.06
2. 6.18
3. 6.92
4. 6.27
5. 6.55
6. 6.65
7. 6.30
8. 6.07

For every item in the list below, what is its measured pIC50?
1. CCOC(=O)c1c(C)[nH]c2c(=O)n(C)cc(C#CC(O)(c3cccc(CO)c3)C(F)(F)F)c12 (centres unmarked)
2. Cc1[nH]c2c(=O)n(C)cc(C#CC(C)(C)O)c2c1C(=O)OC(C)(C)C
3. CCOC(=O)c1c(C)[nH]c2c(=O)n(C)cc(C#CC(O)(c3cccc(-c4cc[nH]n4)c3)C(F)(F)F)c12 (centres unmarked)
4. CCOC(=O)c1c(C)[nH]c2c(=O)n(C)cc(C#Cc3cccnc3)c12
5. Cc1[nH]c2c(=O)n(C)cc(C#CC(O)(c3ccccc3)C(F)(F)F)c2c1C(=O)OC(C)(C)CC#N (centres unmarked)

1: 6.59; 2: 6.51; 3: 6.65; 4: 6.53; 5: 6.57

Items follow; give pIC50 for each.
1. Cc1[nH]c2c(=O)n(C)cc(C#CC(C)(O)C3CC3)c2c1-c1nnc(C(C)C)o1 (centres unmarked)
2. Cc1[nH]c2c(=O)n(C)cc(C#CC(C)(C)O)c2c1C(=O)OCc1ccccc1C#N

6.57
6.94

* * *

# tested_system: TAF1-BD2 (Homo sapiens, UniProt P21675)
# assay_name: TAF1-BD2 TR-FRET Binding Assay
# measurement_setup: read-out: TAF1-BD2 HTRF IC50
property_name: pIC50
One number for each entry, as −log10 of the molar value.

Example cases with answers are listed next.
Cc1[nH]c2c(=O)n(C)cc(C#CC(O)(c3ccccc3)C(F)(F)F)c2c1-c1nnc(CO)o1 (stereo not drawn) ... 7.05
Cc1[nH]c2c(=O)n(C)cc(C#CC(C)(C)O)c2c1C(=O)OC(C)(C)CC#N ... 7.56
Cc1[nH]c2c(=O)n(C)cc(C#CC(C)(O)C3CC3)c2c1-c1nnc(C(C)CN2CCOCC2)o1 (stereo not drawn) ... 7.42

Report pIC50 for every entry below.
1. Cc1[nH]c2c(=O)n(C)cc(C#CC(C)(O)CC#N)c2c1C(=O)OCC(C)C (stereo not drawn)
2. Cc1nnc(-c2c(C)[nH]c3c(=O)n(C)cc(C#CC(O)(c4ccccc4)C(F)(F)F)c23)o1 (stereo not drawn)
3. C=CCCn1cc(C#CC(C)(C)O)c2c(C(=O)OCc3ccccc3C)c(C)[nH]c2c1=O

1. 7.00
2. 7.20
3. 7.22

* * *

# tested_system: TAF1-BD2 (Homo sapiens, UniProt P21675)
# assay_name: TAF1-BD2 TR-FRET Binding Assay
# measurement_setup: read-out: TAF1-BD2 HTRF IC50
What pIC50 was measured for each of the following?
Numbers only, as −log10 of the molar value.

Worked set:
Cc1[nH]c2c(=O)n(C)cc(C#CC(O)(c3ccccc3)C(F)(F)F)c2c1-c1nnco1 (stereo not drawn) ... 7.30
Cc1cc([C@](C)(O)C#Cc2cn(C)c(=O)c3[nH]c(C)c(C(=O)OCC(C)C)c23)no1 ... 7.30

Any idea what its pIC50 is? The compound is Cc1cc([C@](C)(O)C#Cc2cn(C)c(=O)c3[nH]c(C)c(-c4nnc(C5CC5)o4)c23)no1 7.30
